# Tested on: L1210 leukemia cells
# procedureSummary: Formation of colonies of L1210 leukemia cells in soft agar
# Type: cell-based
# testContext: Mus musculus, 168 h; 7 days incubation (continuous exposure), soft agar, L1210; read-out: Colony formation test IC50, 7 days incubation

- molecule: "CCC1(O)CCc2c(O)c3c(c(O)c2C1OC1CC(N(C)C)C(OC2CCC(O)C(C)O2)C(C)O1)C(=O)c1cccc(O)c1C3=O (stereo not drawn)"
  IC50, µg/mL: 0.21
- molecule: "CCC1(O)CCc2c(O)c3c(c(O)c2C1OC1CC(N(C)C)C(OC2CC(O)C(O)C(C)O2)C(C)O1)C(=O)c1cccc(O)c1C3=O (stereo not drawn)"
  IC50, µg/mL: 0.16
- molecule: "CCC1(O)CCc2c(O)c3c(c(O)c2C1OC1CC(N(C)C)C(OC2CC(O)C(OC4CCC(O)C(C)O4)C(C)O2)C(C)O1)C(=O)c1cccc(O)c1C3=O (stereo not drawn)"
  IC50, µg/mL: 0.003

====

# System: L1210 leukemia cells
# procedureSummary: Formation of colonies of L1210 leukemia cells in soft agar
# Format: cell-based
# testContext: Mus musculus, 168 h; 7 days incubation (continuous exposure), soft agar, L1210; read-out: Colony formation test IC50, 7 days incubation
Recorded IC50 values for a group of compounds are listed next.
valueType: IC50 (ng/mL)

- compound: "CCC1(O)CC(OC2CC(N(C)C)C(OC3CC(O)C(OC4CCC(=O)C(C)O4)C(C)O3)C(C)O2)c2c(O)c3c(c(O)c2C1OC1CC(N(C)C)C(OC2CCC(OC4C=CC(=O)C(C)O4)C(C)O2)C(C)O1)C(=O)c1cccc(O)c1C3=O (stereo not shown)"
  assayTarget: "L1210 leukemia cells"
  valueType: "IC50"
  numericReadout: 0.32
- compound: "CCC1(O)CC(OC2CC(N(C)C)C(OC3CCC(OC4CCC(O)C(C)O4)C(C)O3)C(C)O2)c2c(O)c3c(c(O)c2C1OC1CC(N(C)C)C(OC2CCC(OC4CCC(O)C(C)O4)C(C)O2)C(C)O1)C(=O)c1cccc(O)c1C3=O (stereo not shown)"
  assayTarget: "L1210 leukemia cells"
  valueType: "IC50"
  numericReadout: 3
- compound: "COc1cccc2c1C(=O)c1c(O)c3c(c(O)c1C2=O)C[C@@](O)(C(=O)CO)C[C@@H]3O[C@H]1C[C@H](N)[C@H](O)[C@H](C)O1 [ADM, adriamycin, reference compound]"
  assayTarget: "L1210 leukemia cells"
  valueType: "IC50"
  numericReadout: 22
- compound: "CCC1(O)CC(OC2CC(N(C)C)C(OC3CC(O)C(OC4CCC(=O)C(C)O4)C(C)O3)C(C)O2)c2c(O)c3c(c(O)c2C1OC1CC(N(C)C)C(OC2CCC(OC4CCC(O)C(C)O4)C(C)O2)C(C)O1)C(=O)c1cccc(O)c1C3=O (stereo not shown)"
  assayTarget: "L1210 leukemia cells"
  valueType: "IC50"
  numericReadout: 3.4
